Recorded values, source ChEMBL document CHEMBL5724914.

assay-procedure: The drug is tested on WLS-027 corresponding to human gut metagenome with ENA study accession number: PRJEB37062 and ENA sample accession number: ERS12561744 for biotransformation under anaerobic condition. The drug concentrations were measured over 9 timepoints collected between 0 and 24 hours of incubation by liquid-chromatography-coupled mass spectrometry (LC–MS); also: call rule not given here
details: 2 µM
readout: Bacterial Biotransformation

Some compounds with known Bacterial Biotransformation results, for comparison:
[
  {
    "compound": "CC(C)[C@H]1CC[C@H](C(=O)N[C@H](Cc2ccccc2)C(=O)O)CC1 [NATEGLINIDE]",
    "readout": "Bacterial Biotransformation",
    "result": "Compound metabolized"
  },
  {
    "compound": "COc1ccc2c(c1)c(CC(=O)O)c(C)n2C(=O)c1ccc(Cl)cc1",
    "readout": "Bacterial Biotransformation",
    "result": "Compound metabolized"
  },
  {
    "compound": "Cc1ccccc1C(OCCN(C)C)c1ccccc1.O=C(O)CC(O)(CC(=O)O)C(=O)O (stereo not drawn) [ORPHENADRINE CITRATE]",
    "readout": "Bacterial Biotransformation",
    "result": "Compound NOT metabolized"
  },
  {
    "compound": "CCN(CC)CCNC(=O)c1cc(S(C)(=O)=O)ccc1OC [TIAPRIDE]",
    "readout": "Bacterial Biotransformation",
    "result": "Compound NOT metabolized"
  },
  {
    "compound": "CC(N)C12CC3CC(CC(C3)C1)C2 (stereo not drawn)",
    "readout": "Bacterial Biotransformation",
    "result": "Compound NOT metabolized"
  },
  {
    "compound": "C[C@]12CCC(=O)C=C1[C@@H]1C[C@@H]1[C@H]1[C@@H]3[C@@H]4C[C@@H]4[C@@]4(CCC(=O)O4)[C@@]3(C)CC[C@@H]12",
    "readout": "Bacterial Biotransformation",
    "result": "Compound metabolized"
  }
]

For the compound CC(CCc1ccccc1)NCC(O)c1ccc(O)c(C(N)=O)c1 (stereo not drawn) , what Bacterial Biotransformation is on record?
Compound NOT metabolized

Form field: reported Bacterial Biotransformation of CCOc1ccccc1OCCN[C@H](C)Cc1ccc(OC)c(S(N)(=O)=O)c1.Cl [TAMSULOSIN HYDROCHLORIDE]
Compound NOT metabolized

----------
details: human gut metagenome, 24 h, 2 µM
readout: Bacterial Biotransformation

Some solved entries appear below for comparison.
[
  {
    "compound": "O=C(CCCN1CCC2(CC1)C(=O)NCN2c1ccccc1)c1ccc(F)cc1",
    "result": "Compound NOT metabolized"
  },
  {
    "compound": "CCS(=O)(=O)CCn1c([N+](=O)[O-])cnc1C",
    "result": "Compound NOT metabolized"
  },
  {
    "compound": "O=C(NC(Cc1cc(=O)[nH]c2ccccc12)C(=O)O)c1ccc(Cl)cc1 (centres undefined) [REBAMIPIDE]",
    "result": "Compound NOT metabolized"
  },
  {
    "compound": "CC12CC3CC(C)(C1)CC(N)(C3)C2 [MEMANTINE]",
    "result": "Compound NOT metabolized"
  },
  {
    "compound": "CCc1cccc2c3c([nH]c12)C(CC)(CC(=O)O)OCC3 (centres undefined)",
    "result": "Compound metabolized"
  }
]

Report Bacterial Biotransformation for CCCN(CCC)CCc1cccc2c1CC(=O)N2 please.
Compound NOT metabolized

For the compound shown here, CC(=O)OCC(=O)[C@@]1(OC(C)=O)[C@@H](C)C[C@H]2[C@@H]3C[C@H](F)C4=CC(=O)C=C[C@]4(C)[C@@]3(F)[C@@H](O)C[C@@]21C [DIFLORASONE DIACETATE] , give the reported Bacterial Biotransformation.
Compound metabolized

Can you look up the measured Bacterial Biotransformation of O=C1CN2Cc3c(ccc(Cl)c3Cl)N=C2N1 [ANAGRELIDE] for me?
Compound NOT metabolized

Requested read-out: Bacterial Biotransformation. Entry: COc1cc(NC(C)CCCN)c2ncccc2c1.O=P(O)(O)O.O=P(O)(O)O (centres undefined) [PRIMAQUINE PHOSPHATE]
Compound NOT metabolized

Look up Bacterial Biotransformation: CC(N)C12CC3CC(CC(C3)C1)C2 (centres undefined)
Compound NOT metabolized

Recorded Bacterial Biotransformation for CN(C)CCC=C1c2ccccc2COc2ccccc21 [DOXEPIN] , please?
Compound NOT metabolized

Could you tell me which Bacterial Biotransformation is on file for CC(C)C[C@H]1C(=O)N2CCC[C@H]2[C@]2(O)O[C@](NC(=O)[C@@H]3C=C4c5cccc6[nH]c(Br)c(c56)C[C@H]4N(C)C3)(C(C)C)C(=O)N12.CS(=O)(=O)O [BROMOCRIPTINE MESYLATE] ?
Compound metabolized

If you can, please state the reported Bacterial Biotransformation value of CC(C)[C@H]1CC[C@H](C(=O)N[C@H](Cc2ccccc2)C(=O)O)CC1 [NATEGLINIDE] .
Compound metabolized
